These entries and their values trace back to ChEMBL document CHEMBL1201862.

Target: Induced myeloid leukemia cell differentiation protein Mcl-1 (Homo sapiens)
Sequence (Q07820 whole entry): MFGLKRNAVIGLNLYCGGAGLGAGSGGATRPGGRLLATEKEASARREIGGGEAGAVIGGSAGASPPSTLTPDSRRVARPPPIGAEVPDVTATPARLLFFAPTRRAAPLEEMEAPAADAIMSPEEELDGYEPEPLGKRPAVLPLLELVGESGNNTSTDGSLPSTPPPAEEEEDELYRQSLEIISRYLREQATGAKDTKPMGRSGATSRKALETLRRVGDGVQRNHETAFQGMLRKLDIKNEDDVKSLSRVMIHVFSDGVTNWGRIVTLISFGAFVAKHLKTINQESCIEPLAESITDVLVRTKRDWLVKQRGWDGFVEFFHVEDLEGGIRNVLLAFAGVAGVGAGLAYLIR
Type: functional
The source made the active and inactive calls.

MOLECULE	TARGET_SYSTEM	IC50
O=C(CSc1nnc(COc2ccccc2Cl)o1)NC(=O)NCc1ccco1	Induced myeloid leukemia cell differentiation protein Mcl-1 (Homo sapiens)	6.9 µM (active)
Oc1ccc(/C=N/n2cc(-c3ccccc3)nc2S)cc1	Induced myeloid leukemia cell differentiation protein Mcl-1 (Homo sapiens)	16.5 µM (active)
O=[N+]([O-])c1cc(Br)c(O)c(/C=N/Nc2nc3ccccc3s2)c1	Induced myeloid leukemia cell differentiation protein Mcl-1 (Homo sapiens)	> 54 µM (active)
CCN(CC)c1ccc(/C=N/N2CCN(Cc3ccccc3)CC2)cc1	Induced myeloid leukemia cell differentiation protein Mcl-1 (Homo sapiens)	11.5 µM (not active)
O=C(O)c1cccc(-n2cccc2/C=C2/NC(=O)N(c3ccc(Cl)cc3)C2=O)c1	Induced myeloid leukemia cell differentiation protein Mcl-1 (Homo sapiens)	2.69 µM (active)
CC1Oc2cc3c(-c4c(O)cc(O)c5c(O)c6c(cc45)OC(C)C(C)C6=O)c(O)cc(O)c3c(O)c2C(=O)C1C (stereo unspecified)	Induced myeloid leukemia cell differentiation protein Mcl-1 (Homo sapiens)	2.15 µM (active)

* * *

Experiment: NIH-3T3 fibroblast cytotoxicity, dose response, cytotoxicity control, cell-based, fluorescence, Alamar Blue, secondary assay (AID 2327);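 note: NIH-3T3 mouse fibroblasts cultured with fluconazole at 8 µg/mL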
Type: functional
The source made the active and inactive calls.
EC50 values for the compounds below.

SMILES_INPUT	EC50
CCn1c(SCC(=O)c2ccc(O)c(O)c2)nnc1-c1ccccc1OC	> 160 µM (inactive)
Cc1ccc2nc(-c3ccccc3Cl)cc(C(=O)Nc3cc(C)on3)c2c1	> 160 µM (inactive)
Cc1ccc(C(=O)N/N=C/c2c(O)ccc3ccccc23)cn1	> 150 µM (inactive)
O=C(NCc1ccccc1)C1c2ccccc2Oc2ccccc21	> 150 µM (inconclusive)

* * *

AC50 values for the compounds below.
Biological target: Cytochrome P450 2D6 (Homo sapiens);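 note: CYP2D6 member of a cytochrome P450 panel assay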
Sequence (P10635 whole entry): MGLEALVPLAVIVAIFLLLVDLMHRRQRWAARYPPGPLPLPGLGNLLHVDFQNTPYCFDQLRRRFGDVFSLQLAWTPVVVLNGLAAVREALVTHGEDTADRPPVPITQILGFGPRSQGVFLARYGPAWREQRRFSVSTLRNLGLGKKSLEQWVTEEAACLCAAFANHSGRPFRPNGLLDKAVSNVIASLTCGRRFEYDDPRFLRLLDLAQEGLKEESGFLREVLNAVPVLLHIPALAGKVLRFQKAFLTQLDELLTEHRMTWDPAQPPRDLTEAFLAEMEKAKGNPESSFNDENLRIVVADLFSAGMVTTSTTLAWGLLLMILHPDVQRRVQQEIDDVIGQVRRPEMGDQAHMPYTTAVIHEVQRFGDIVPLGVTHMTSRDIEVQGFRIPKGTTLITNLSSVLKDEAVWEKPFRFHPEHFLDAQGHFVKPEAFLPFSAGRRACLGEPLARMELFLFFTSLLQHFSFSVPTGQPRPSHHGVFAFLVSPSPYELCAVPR

COMPOUND	AC50
CN(C)CCCn1c2ccccc2c2cnccc21	3.98 µM (inconclusive)
Cc1nnc(-c2cccc(Br)c2)c2cn(-c3ccccc3Cl)nc12	28.2 µM (inconclusive)
Cc1noc(C)c1-c1nc(NCc2cccs2)c2ccccc2n1	3.98 µM (inconclusive)
CC(Oc1ccc(Cl)cc1)c1ccnn1S(=O)(=O)c1ccccc1 (stereo not given)	14.1 µM (inconclusive)
Cc1ncn(-c2ccccc2O)c1C	3.16 µM (inconclusive)
CN(C)S(=O)(=O)c1ccc(Nc2ccc(O)c3c2C(=O)c2c([N+](=O)[O-])ccc(O)c2C3=O)cc1	0.794 µM (inconclusive)
Cc1cc(C)c2c(N=NN(C)C)[nH]nc2n1	14.1 µM (inconclusive)
C=C(CC1([C@@H](NP(=O)(c2ccccc2)c2ccccc2)[C@H]2C[C@@H]2CCCC)CC1)c1cccc(OC)c1	39.8 µM (inconclusive)
COc1cc(/C=N/O)cc(Br)c1OCc1ccc(Cl)cc1	17.8 µM (inconclusive)
COc1ccc2cc3cc(C(=O)NCc4ccccn4)oc3nc2c1	39.8 µM (inconclusive)

* * *

Molecular target: Histone-lysine N-methyltransferase NSD2 (Homo sapiens, UniProt O96028)
Format: biochemical
Activity calls are given as the source filed them.
Outcomes: Yes (active), No (inactive)

SMILES_INPUT	DISCRETE_LABEL
O=S(=O)(O)c1cc(Cl)cc(N=Nc2ccc(O)cc2O)c1O	Yes
O=C(O)c1cccc(-n2cccc2/C=C2/NC(=O)N(c3ccc(Cl)cc3)C2=O)c1	Yes
CCn1c(SCC(=O)c2ccc(O)c(O)c2)nnc1-c1ccccc1OC	Yes
N#CC(C#N)=Cc1cccn1-c1ccc(C(=O)O)cc1	No

* * *

IC50 values for the molecules below.
Molecular target: Protein-tyrosine kinase 2-beta (Homo sapiens, UniProt Q14289);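 note: potency of inhibitors of PYK2 kinase phosphorylation of poly-GT substrate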
Calls of active or inactive are those of the source.

MOLECULE	IC50
CCOC(=O)C1=C(c2ccccc2)OC(N)=C(C#N)C1c1cccs1 (centres undefined)	> 69.5 µM (not active)
O=P(O)(O)c1ccccc1OCCCCCOc1ccccc1P(=O)(O)O	2.23 µM (active)
COc1ccc(OC)c(NS(=O)(=O)Cc2ccccc2)c1	12 µM (not active)
N#CCSc1nc(Nc2ccc3c(c2)OCO3)c2ccccc2n1	> 69.5 µM (not active)

* * *

Biological target: Polyadenylate-binding protein 1 (Homo sapiens, UniProt P11940)
Test: MLLE domain peptide-binding blockers, IC50 – biochemical, fluorescence polarization, FITC-PAM2 peptide, dose response (AID 602259)
Assay type: functional
Conditions: read-out: IC50_Mean
Active and inactive are the calls of the source.
Outcomes: active, inactive

MOLECULE	DISCRETE_LABEL
CCCn1c(=C(C#N)C#N)s/c(=C2\C=Cc3ccccc3N2CC)c1=O	inactive
COc1cc(NC(S)=Nc2ccc(N(C)C(C)=O)cc2)cc(OC)c1	inactive
S=C(c1ccc(Cl)cc1)N1CCOCC1	inactive
COc1ccc(NC(=O)C2Cc3ccccc3CN2C(=O)c2ccccc2)cn1 (stereo unspecified)	active
CC(=O)Nc1ccc(S(=O)(=O)NCC(=O)N2CCN(S(=O)(=O)c3cccs3)CC2)cc1	inactive
Cc1nc(NS(=O)(=O)c2ccccc2)sc1NC(=O)OC(C)C	inactive

* * *

Target: Voltage-gated N-type calcium channel alpha-1B subunit/Amyloid beta A4 precursor protein-binding family A member 1 (Homo sapiens, UniProt Q00975+Q02410)
Sequence (Q00975 whole entry): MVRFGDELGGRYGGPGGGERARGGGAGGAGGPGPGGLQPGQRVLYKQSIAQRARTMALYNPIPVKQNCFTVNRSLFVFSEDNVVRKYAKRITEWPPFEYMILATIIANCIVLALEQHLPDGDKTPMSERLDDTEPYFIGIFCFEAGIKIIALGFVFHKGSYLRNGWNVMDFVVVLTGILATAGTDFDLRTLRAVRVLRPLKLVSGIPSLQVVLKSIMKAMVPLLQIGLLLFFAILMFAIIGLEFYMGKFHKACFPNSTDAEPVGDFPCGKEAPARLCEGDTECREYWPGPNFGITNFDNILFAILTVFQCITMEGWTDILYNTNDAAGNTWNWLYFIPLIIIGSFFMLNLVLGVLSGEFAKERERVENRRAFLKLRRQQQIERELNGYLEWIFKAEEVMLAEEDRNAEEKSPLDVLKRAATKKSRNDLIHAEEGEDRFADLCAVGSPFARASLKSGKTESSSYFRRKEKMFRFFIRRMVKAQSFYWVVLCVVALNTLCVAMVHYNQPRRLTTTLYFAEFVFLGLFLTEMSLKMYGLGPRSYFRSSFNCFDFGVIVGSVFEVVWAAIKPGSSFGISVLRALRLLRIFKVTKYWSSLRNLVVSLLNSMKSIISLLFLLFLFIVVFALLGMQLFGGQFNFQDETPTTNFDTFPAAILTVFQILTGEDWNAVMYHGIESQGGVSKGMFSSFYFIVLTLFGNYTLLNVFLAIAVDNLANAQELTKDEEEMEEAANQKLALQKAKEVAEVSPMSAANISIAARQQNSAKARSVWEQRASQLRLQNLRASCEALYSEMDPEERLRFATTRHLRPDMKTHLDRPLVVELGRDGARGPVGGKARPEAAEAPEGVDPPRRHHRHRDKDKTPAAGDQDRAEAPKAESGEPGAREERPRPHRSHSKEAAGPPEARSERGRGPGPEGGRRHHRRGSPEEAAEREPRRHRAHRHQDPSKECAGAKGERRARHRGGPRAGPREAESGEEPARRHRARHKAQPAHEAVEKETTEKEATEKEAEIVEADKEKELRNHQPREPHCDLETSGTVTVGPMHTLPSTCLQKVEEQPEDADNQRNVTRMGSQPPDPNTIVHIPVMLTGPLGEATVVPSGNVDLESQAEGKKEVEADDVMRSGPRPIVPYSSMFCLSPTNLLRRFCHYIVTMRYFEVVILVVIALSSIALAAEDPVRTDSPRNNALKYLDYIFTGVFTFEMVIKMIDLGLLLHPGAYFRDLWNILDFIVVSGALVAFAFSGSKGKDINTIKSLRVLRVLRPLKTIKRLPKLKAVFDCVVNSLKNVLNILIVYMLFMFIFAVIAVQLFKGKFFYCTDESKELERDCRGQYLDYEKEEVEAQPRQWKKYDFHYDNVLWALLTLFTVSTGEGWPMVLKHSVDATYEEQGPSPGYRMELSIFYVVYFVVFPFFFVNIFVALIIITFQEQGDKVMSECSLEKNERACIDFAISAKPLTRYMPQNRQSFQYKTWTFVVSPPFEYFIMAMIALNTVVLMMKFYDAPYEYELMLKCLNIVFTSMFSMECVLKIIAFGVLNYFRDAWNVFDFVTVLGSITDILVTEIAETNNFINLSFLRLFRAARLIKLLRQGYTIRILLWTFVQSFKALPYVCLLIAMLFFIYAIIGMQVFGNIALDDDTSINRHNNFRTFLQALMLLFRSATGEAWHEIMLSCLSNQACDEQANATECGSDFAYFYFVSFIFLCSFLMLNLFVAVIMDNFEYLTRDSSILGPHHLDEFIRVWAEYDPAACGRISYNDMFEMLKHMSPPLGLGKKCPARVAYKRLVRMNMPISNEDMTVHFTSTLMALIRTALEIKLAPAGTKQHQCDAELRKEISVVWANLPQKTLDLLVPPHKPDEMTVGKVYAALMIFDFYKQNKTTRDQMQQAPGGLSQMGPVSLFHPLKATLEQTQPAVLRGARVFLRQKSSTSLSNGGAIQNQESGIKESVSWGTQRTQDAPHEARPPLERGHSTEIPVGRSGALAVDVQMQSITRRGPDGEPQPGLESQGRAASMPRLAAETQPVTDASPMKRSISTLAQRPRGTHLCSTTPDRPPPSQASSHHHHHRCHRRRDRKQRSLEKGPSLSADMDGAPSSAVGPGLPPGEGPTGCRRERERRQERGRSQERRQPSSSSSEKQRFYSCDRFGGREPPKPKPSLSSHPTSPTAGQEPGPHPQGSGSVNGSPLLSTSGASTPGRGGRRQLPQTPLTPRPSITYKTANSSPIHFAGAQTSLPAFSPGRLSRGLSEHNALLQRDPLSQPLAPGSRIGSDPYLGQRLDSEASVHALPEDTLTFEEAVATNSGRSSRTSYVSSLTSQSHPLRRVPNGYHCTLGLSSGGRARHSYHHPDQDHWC
Sequence (Q02410 whole entry): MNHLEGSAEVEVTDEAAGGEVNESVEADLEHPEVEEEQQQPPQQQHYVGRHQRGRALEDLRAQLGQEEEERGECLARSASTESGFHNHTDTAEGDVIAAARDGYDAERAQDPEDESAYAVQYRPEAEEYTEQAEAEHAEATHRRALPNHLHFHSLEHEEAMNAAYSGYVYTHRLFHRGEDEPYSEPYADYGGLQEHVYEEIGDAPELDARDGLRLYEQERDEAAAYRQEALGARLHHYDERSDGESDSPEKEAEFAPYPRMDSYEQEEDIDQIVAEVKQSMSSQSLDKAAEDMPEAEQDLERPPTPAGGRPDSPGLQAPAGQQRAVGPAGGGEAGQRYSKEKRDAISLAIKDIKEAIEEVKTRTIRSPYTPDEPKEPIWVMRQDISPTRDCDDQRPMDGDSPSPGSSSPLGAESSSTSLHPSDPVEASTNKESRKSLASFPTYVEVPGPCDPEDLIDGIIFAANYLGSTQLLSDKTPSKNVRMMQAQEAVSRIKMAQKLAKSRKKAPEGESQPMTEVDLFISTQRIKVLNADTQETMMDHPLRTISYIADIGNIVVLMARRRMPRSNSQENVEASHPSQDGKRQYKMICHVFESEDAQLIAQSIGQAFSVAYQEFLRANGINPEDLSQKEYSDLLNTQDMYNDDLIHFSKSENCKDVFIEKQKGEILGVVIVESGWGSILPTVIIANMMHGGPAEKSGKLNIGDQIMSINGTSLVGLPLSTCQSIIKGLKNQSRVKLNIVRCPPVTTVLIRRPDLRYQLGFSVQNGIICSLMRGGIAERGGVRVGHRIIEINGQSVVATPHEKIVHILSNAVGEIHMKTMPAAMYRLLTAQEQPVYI
Type: protein assay
Activity calls are given as the source filed them.
Outcomes: active, inactive

COMPOUND	DISCRETE_LABEL
O=C(O)c1cccc(-n2cccc2/C=C2/NC(=O)N(c3ccc(Cl)cc3)C2=O)c1	active
CC(/C=C/c1ccco1)=N\NC(=O)c1cccnc1	active
COc1ccccc1NS(=O)(=O)c1cc(NC(=O)c2ccncc2)ccc1N1CCCC1	inactive
N#CC1=C2SCN(c3ccc(F)cc3)CN2C(=O)CC1c1cccc(F)c1 (centres undefined)	inactive

* * *

Reported AC50 for target or system Cytochrome P450 2C9 (Homo sapiens, UniProt P11712), by entry.
READOUT_LABEL: AC50

COMPOUND	REPORTED
CC1=CC2=NC(=O)CC(C)(C(=O)N(CC(=O)NC(C)(C)C)Cc3cccs3)N2C=C1 (stereo not given)	25.1 µM (inconclusive)
COCCNC(=O)[C@H](C)[C@@H]1C[C@@]1(C)[C@@H](NC(=O)OCc1ccccc1)c1ccccc1	31.6 µM (inconclusive)
CC1CCN(c2ccc(NC(=S)NC(=O)c3ccco3)cc2)CC1	1.41 µM (inconclusive)
CCCC(=O)Nc1nnc(Cc2ccccc2)s1	10 µM (inconclusive)
Cc1ccc(S(=O)(=O)c2cc(N3CCOCC3)nc(-c3ccccc3)n2)cc1	11.2 µM (inconclusive)

* * *

Molecular target: Steroidogenic factor 1 (Homo sapiens, UniProt Q13285)
Test: Counterscreen for inverse agonists of the liver receptor homolog-1 (LRH-1; NR5A2): Luminescence-based cell-based high throughput dose response assay to identify inverse agonists of the Steroidogenic Factor 1 Nuclear Receptor (SF1; NR5A1).
Format: functional
Activity calls are given as the source filed them.
Outcomes: Yes (active), No (inactive)

SMILES_INPUT	DISCRETE_LABEL
COc1ccc(NC(=O)CN2C(=O)NC3(CCCC3)C2=O)cc1	No
COc1cc(/C=N/NC(N)=S)ccc1OCC(=O)Nc1ccc(C)cc1	Yes
CCn1c(SCC(=O)Nc2ccc(Cl)cc2)nnc1C1CC1	Yes
COc1ccc(NS(=O)(=O)c2ccc(OCC(=O)N3CCN(C)CC3)cc2)cc1Cl	Yes

* * *

EC50 values for the compounds below.
Target: UniProt Q9QUQ5
Sequence (Q9QUQ5 whole entry): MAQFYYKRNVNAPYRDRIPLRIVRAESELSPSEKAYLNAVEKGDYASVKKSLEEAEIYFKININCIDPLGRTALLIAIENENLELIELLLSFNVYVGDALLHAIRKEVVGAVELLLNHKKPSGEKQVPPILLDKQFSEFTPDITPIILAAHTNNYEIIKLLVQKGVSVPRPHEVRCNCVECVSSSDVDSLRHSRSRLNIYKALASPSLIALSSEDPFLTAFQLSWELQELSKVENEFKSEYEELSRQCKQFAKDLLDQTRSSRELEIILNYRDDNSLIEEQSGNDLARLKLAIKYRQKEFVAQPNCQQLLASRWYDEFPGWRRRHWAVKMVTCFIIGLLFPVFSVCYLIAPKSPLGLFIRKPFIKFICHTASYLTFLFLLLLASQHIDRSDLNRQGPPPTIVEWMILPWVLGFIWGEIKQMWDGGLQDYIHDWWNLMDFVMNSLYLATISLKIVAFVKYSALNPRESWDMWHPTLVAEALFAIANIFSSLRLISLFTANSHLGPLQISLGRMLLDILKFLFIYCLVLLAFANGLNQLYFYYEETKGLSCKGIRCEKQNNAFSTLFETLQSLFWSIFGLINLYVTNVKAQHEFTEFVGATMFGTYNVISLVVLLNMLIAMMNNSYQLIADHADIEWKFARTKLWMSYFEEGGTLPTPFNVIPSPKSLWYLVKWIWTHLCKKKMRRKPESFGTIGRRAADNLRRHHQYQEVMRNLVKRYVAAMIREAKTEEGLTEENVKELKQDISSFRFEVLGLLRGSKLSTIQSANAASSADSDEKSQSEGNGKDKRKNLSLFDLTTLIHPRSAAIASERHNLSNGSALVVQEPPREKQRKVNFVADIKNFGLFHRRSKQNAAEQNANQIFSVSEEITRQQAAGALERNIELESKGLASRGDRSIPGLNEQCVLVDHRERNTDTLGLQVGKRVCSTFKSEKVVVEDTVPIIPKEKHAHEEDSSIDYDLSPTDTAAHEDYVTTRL
Test: calcium entry via TRPC4 opening agents – cell-based, HEK293 TRPC4/mu-opioid, Fluo-4 calcium, dose response (AID 434937)
Assay type: functional
Calls of active or inactive are those of the source.

COMPOUND	EC50
Cc1cc(C)c(CN2CCN(Cc3ccc(C)o3)C(CCO)C2)c(-n2cccn2)c1 (centres undefined)	3.35 µM (active)
O=C(COc1cc(Cl)c(Cl)cc1Cl)NCCc1ccccn1	10.6 µM (active)
Cc1ccccc1Cn1c(CN2CCc3ccccc3C2)nc2c1c(=O)n(C)c(=O)n2C	5.96 µM (active)
CCCCC(=O)NC(=S)NNC(=O)c1ccc(Cl)cc1Cl	5.31 µM (active)

* * *

Biological target: Microphthalmia-associated transcription factor (Homo sapiens, UniProt O75030)
Assay: reducers of TRPM1 reporter luminescence, concentration series – cell-based, SK-MEL-5, cherry-picked, set 3, MITF inhibitor project, dose response (AID 493073);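 note: SK-MEL-5 melanoma cells with luciferase driven by the MITF target TRPM1 promoter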
Format: functional
The source made the active and inactive calls.

COMPOUND	TARGET_SYSTEM	AC50
COc1ccc(C(=O)/C=C/C(=O)N(CC(=O)NC2CCCCC2)CC2CCCO2)c(O)c1 (centres undefined)	Microphthalmia-associated transcription factor (Homo sapiens, UniProt O75030)	4.01 µM (active)
O=C(N/N=C/c1ccc([N+](=O)[O-])s1)c1ccccc1	Microphthalmia-associated transcription factor (Homo sapiens, UniProt O75030)	2.29 µM (active)
N=c1n(CC(=O)c2ccc([N+](=O)[O-])cc2)c2ccccc2n1Cc1ccccc1Cl	Microphthalmia-associated transcription factor (Homo sapiens, UniProt O75030)	4.03 µM (active)
Cc1ccc(C2CC(C(F)(F)F)n3nc(C(=O)NCc4c(C)nn(C)c4C)c(Cl)c3N2)cc1 (centres undefined)	Microphthalmia-associated transcription factor (Homo sapiens, UniProt O75030)	8.89 µM (active)
CC1=CC(=Cc2sc3ccccc3[n+]2C)C=C(C)N1CC1CCCO1 (centres undefined)	Microphthalmia-associated transcription factor (Homo sapiens, UniProt O75030)	1.82 µM (active)
O=C1NC(=O)N(CCc2ccc(F)cc2)C(=O)/C1=C\C=C\c1ccccc1	Microphthalmia-associated transcription factor (Homo sapiens, UniProt O75030)	8.26 µM (active)
CC(C)(C)c1ccc(OCCCNCc2ccccc2)cc1	Microphthalmia-associated transcription factor (Homo sapiens, UniProt O75030)	18.4 µM (active)
COC(=O)C1=C(CN2CCCc3ccccc32)NC(=O)NC1c1ccc(F)cc1 (centres undefined)	Microphthalmia-associated transcription factor (Homo sapiens, UniProt O75030)	2.16 µM (active)
CC(Oc1ccccc1)C(=O)Nc1nc(-c2ccccn2)cs1 (centres undefined)	Microphthalmia-associated transcription factor (Homo sapiens, UniProt O75030)	14 µM (active)
